- experimental.details: Drug excretion in nonobese human at 4 mg/kg, iv administered as single dose 30 mins infusion
- Format: ADME, organism-based
- Parameters: dose 4 mg/kg, route intravenous
- condition.context: in vivo, read-out: Drug uptake
observable: dose excreted at 0.5 h (%)
Answer in %, number only, no unit symbol.

Qu. Look up and report measured dose excreted at 0.5 h for this entry: "CCCCCCCCCC(=O)N[C@@H](Cc1c[nH]c2ccccc12)C(=O)N[C@H](CC(N)=O)C(=O)N[C@@H](CC(=O)O)C(=O)N[C@@H]1C(=O)NCC(=O)N[C@@H](CCCN)C(=O)N[C@@H](CC(=O)O)C(=O)N[C@H](C)C(=O)N[C@@H](CC(=O)O)C(=O)NCC(=O)N[C@H](CO)C(=O)N[C@@H]([C@H](C)CC(=O)O)C(=O)N[C@@H](CC(=O)c2ccccc2N)C(=O)O[C@@H]1C"
Ans. 48.6

====

- experimental.details: Renal clearance in adult human with hepatic impairment at 6 mg/kg, iv administered as single dose 30 mins infusion
- Format: ADME, organism-based, Kidney
- Parameters: dose 6 mg/kg, route intravenous
- condition.context: in vivo, read-out: CL_renal (converted)
observable: CL renal at 0.5 h (mL/h/kg)
Answer in mL/h/kg, number only, no unit symbol.

Qu. Look up and report measured CL renal at 0.5 h for this entry: "CCCCCCCCCC(=O)N[C@@H](Cc1c[nH]c2ccccc12)C(=O)N[C@H](CC(N)=O)C(=O)N[C@@H](CC(=O)O)C(=O)N[C@@H]1C(=O)NCC(=O)N[C@@H](CCCN)C(=O)N[C@@H](CC(=O)O)C(=O)N[C@H](C)C(=O)N[C@@H](CC(=O)O)C(=O)NCC(=O)N[C@H](CO)C(=O)N[C@@H]([C@H](C)CC(=O)O)C(=O)N[C@@H](CC(=O)c2ccccc2N)C(=O)O[C@@H]1C"
Ans. 3.65

====

- experimental.details: Clearance in healthy human subjects at 6 mg/kg, iv administered as 30 mins infusion every 24 hrs measured on days 1-3
- Type: ADME, organism-based
- Set-up: dose 6 mg/kg, route intravenous
- condition.context: in vivo
observable: clearance (mL/min/kg)
Answer in mL/min/kg, number only, no unit symbol.

Qu. Look up and report measured clearance for this entry: "CCCCCCCCCC(=O)N[C@@H](Cc1c[nH]c2ccccc12)C(=O)N[C@H](CC(N)=O)C(=O)N[C@@H](CC(=O)O)C(=O)N[C@@H]1C(=O)NCC(=O)N[C@@H](CCCN)C(=O)N[C@@H](CC(=O)O)C(=O)N[C@H](C)C(=O)N[C@@H](CC(=O)O)C(=O)NCC(=O)N[C@H](CO)C(=O)N[C@@H]([C@H](C)CC(=O)O)C(=O)N[C@@H](CC(=O)c2ccccc2N)C(=O)O[C@@H]1C"
Ans. 0.158

====

- experimental.details: Half life in healthy human subjects at 6 mg/kg, iv administered as 30 mins infusion every 24 hrs measured on day 4
- Format: ADME, organism-based
- Set-up: dose 6 mg/kg, route intravenous
- condition.context: in vivo
observable: half-life (h)
Answer in h, number only, no unit symbol.

Qu. Look up and report measured half-life for this entry: "CCCCCCCCCC(=O)N[C@@H](Cc1c[nH]c2ccccc12)C(=O)N[C@H](CC(N)=O)C(=O)N[C@@H](CC(=O)O)C(=O)N[C@@H]1C(=O)NCC(=O)N[C@@H](CCCN)C(=O)N[C@@H](CC(=O)O)C(=O)N[C@H](C)C(=O)N[C@@H](CC(=O)O)C(=O)NCC(=O)N[C@H](CO)C(=O)N[C@@H]([C@H](C)CC(=O)O)C(=O)N[C@@H](CC(=O)c2ccccc2N)C(=O)O[C@@H]1C"
Ans. 7.9

====

- experimental.details: AUC (0 to infinity) in healthy human subjects at 6 mg/kg, iv administered as 30 mins infusion every 24 hrs measured on day 4
- Format: ADME, organism-based
- Parameters: time infinity, dose 6 mg/kg, route intravenous
- condition.context: plasma
observable: AUC(0-inf) (µg·h/mL)
Answer in µg·h/mL, number only, no unit symbol.

Qu. Look up and report measured AUC(0-inf) for this entry: "CCCCCCCCCC(=O)N[C@@H](Cc1c[nH]c2ccccc12)C(=O)N[C@H](CC(N)=O)C(=O)N[C@@H](CC(=O)O)C(=O)N[C@@H]1C(=O)NCC(=O)N[C@@H](CCCN)C(=O)N[C@@H](CC(=O)O)C(=O)N[C@H](C)C(=O)N[C@@H](CC(=O)O)C(=O)NCC(=O)N[C@H](CO)C(=O)N[C@@H]([C@H](C)CC(=O)O)C(=O)N[C@@H](CC(=O)c2ccccc2N)C(=O)O[C@@H]1C"
Ans. 632

====

- experimental.details: AUC (0 to infinity) in old healthy human at 4 mg/kg, iv administered as single dose 30 mins infusion
- Type: ADME, organism-based
- Design: dose 4 mg/kg, route intravenous, time infinity
- condition.context: plasma
observable: AUC(0-inf) (µg·h/mL)
Answer in µg·h/mL, number only, no unit symbol.

Qu. Look up and report measured AUC(0-inf) for this entry: "CCCCCCCCCC(=O)N[C@@H](Cc1c[nH]c2ccccc12)C(=O)N[C@H](CC(N)=O)C(=O)N[C@@H](CC(=O)O)C(=O)N[C@@H]1C(=O)NCC(=O)N[C@@H](CCCN)C(=O)N[C@@H](CC(=O)O)C(=O)N[C@H](C)C(=O)N[C@@H](CC(=O)O)C(=O)NCC(=O)N[C@H](CO)C(=O)N[C@@H]([C@H](C)CC(=O)O)C(=O)N[C@@H](CC(=O)c2ccccc2N)C(=O)O[C@@H]1C"
Ans. 474

====

- experimental.details: Clearance in nonobese human subjects at 4 mg/kg, iv administered as single dose 30 mins infusion
- Format: ADME, organism-based
- Parameters: dose 4 mg/kg, route intravenous
- condition.context: in vivo
observable: clearance (mL/min/kg)
Answer in mL/min/kg, number only, no unit symbol.

Qu. Look up and report measured clearance for this entry: "CCCCCCCCCC(=O)N[C@@H](Cc1c[nH]c2ccccc12)C(=O)N[C@H](CC(N)=O)C(=O)N[C@@H](CC(=O)O)C(=O)N[C@@H]1C(=O)NCC(=O)N[C@@H](CCCN)C(=O)N[C@@H](CC(=O)O)C(=O)N[C@H](C)C(=O)N[C@@H](CC(=O)O)C(=O)NCC(=O)N[C@H](CO)C(=O)N[C@@H]([C@H](C)CC(=O)O)C(=O)N[C@@H](CC(=O)c2ccccc2N)C(=O)O[C@@H]1C"
Ans. 0.2

====

- experimental.details: Half life in healthy human at 4 mg/kg, iv administered as 30 mins infusion every 24 hrs measured on day 7
- Assay type: ADME, organism-based
- Parameters: dose 4 mg/kg, route intravenous
- condition.context: in vivo
observable: half-life (h)
Answer in h, number only, no unit symbol.

Qu. Look up and report measured half-life for this entry: "CCCCCCCCCC(=O)N[C@@H](Cc1c[nH]c2ccccc12)C(=O)N[C@H](CC(N)=O)C(=O)N[C@@H](CC(=O)O)C(=O)N[C@@H]1C(=O)NCC(=O)N[C@@H](CCCN)C(=O)N[C@@H](CC(=O)O)C(=O)N[C@H](C)C(=O)N[C@@H](CC(=O)O)C(=O)NCC(=O)N[C@H](CO)C(=O)N[C@@H]([C@H](C)CC(=O)O)C(=O)N[C@@H](CC(=O)c2ccccc2N)C(=O)O[C@@H]1C"
Ans. 8.1

====

- experimental.details: AUC (0 to infinity) in healthy human at 4 mg/kg, iv administered as single dose 30 mins infusion
- Format: ADME, organism-based
- Set-up: time infinity, dose 4 mg/kg, route intravenous
- condition.context: plasma
observable: AUC(0-inf) (µg·h/mL)
Answer in µg·h/mL, number only, no unit symbol.

Qu. Look up and report measured AUC(0-inf) for this entry: "CCCCCCCCCC(=O)N[C@@H](Cc1c[nH]c2ccccc12)C(=O)N[C@H](CC(N)=O)C(=O)N[C@@H](CC(=O)O)C(=O)N[C@@H]1C(=O)NCC(=O)N[C@@H](CCCN)C(=O)N[C@@H](CC(=O)O)C(=O)N[C@H](C)C(=O)N[C@@H](CC(=O)O)C(=O)NCC(=O)N[C@H](CO)C(=O)N[C@@H]([C@H](C)CC(=O)O)C(=O)N[C@@H](CC(=O)c2ccccc2N)C(=O)O[C@@H]1C"
Ans. 530

====

- experimental.details: Mean residence time in old healthy human at 4 mg/kg, iv administered as single dose 30 mins infusion
- Assay type: ADME, organism-based
- Design: dose 4 mg/kg, route intravenous
- condition.context: in vivo
observable: MRT
Quote the value and follow it with the unit of measurement.

Qu. Look up and report measured MRT for this entry: "CCCCCCCCCC(=O)N[C@@H](Cc1c[nH]c2ccccc12)C(=O)N[C@H](CC(N)=O)C(=O)N[C@@H](CC(=O)O)C(=O)N[C@@H]1C(=O)NCC(=O)N[C@@H](CCCN)C(=O)N[C@@H](CC(=O)O)C(=O)N[C@H](C)C(=O)N[C@@H](CC(=O)O)C(=O)NCC(=O)N[C@H](CO)C(=O)N[C@@H]([C@H](C)CC(=O)O)C(=O)N[C@@H](CC(=O)c2ccccc2N)C(=O)O[C@@H]1C"
Ans. 15.9 h
